Reference source: PubChem BioAssay AID743445

# tgt: Histone-lysine N-methyltransferase NSD2 (Homo sapiens)
# measurementProtocol: NSD2 histone methyltransferase inhibitors, primary screen, biochemical, AlphaScreen, single concentration, set 2 (AID 743445)
# conditionNotes: NSD2 peptide methylation, 120 min, at 12.5 µM
The whole screen tested about 310,000 compounds, of which about 1,700 (0.55%) were called active. No stated cut-off is given here; in the data, active means inhibition above about 50%; inactive means the rest. This is one part of a sample in which actives are shown more often than they occur.
In this exercise, the only acceptable responses are active, inactive

Prompt: Could you check what this test reported for "O=C1C=CC(=O)N1c1ccc(N2CCCCC2)cc1" ?
Completion: active

Prompt: Could you check what this test reported for "O=C(Cc1ccccc1)NC(=S)Nc1ccc(N2CCCCC2)cc1" ?
Completion: inactive

Prompt: Could you check what this test reported for "CCOC(=O)[C@]12CCCC=C1N(CCC1=CCCCC1)C(=O)[C@H](CC(=O)NCCCCc1ccccc1)C2" ?
Completion: inactive

Prompt: Could you check what this test reported for "CCOC(=O)CCCNC(=O)COC(=O)/C=C/c1ccc2c(c1)OCO2" ?
Completion: inactive

Prompt: Could you check what this test reported for "CC(=O)Nc1ccc(S(=O)(=O)Nc2ccc(N3CCCCC3)cc2)cc1" ?
Completion: inactive

Prompt: Could you check what this test reported for "CCOc1ccc(/C=C/C(=O)OCC(=O)c2ccccc2OC)cc1OC" ?
Completion: inactive

Prompt: Could you check what this test reported for "CCOc1cc(/C=C/C(=O)OCC(=O)NCCN2C(=O)CSC2=O)ccc1OCC(C)C" ?
Completion: active

Prompt: Could you check what this test reported for "C=CCn1c(SCC(N)=O)nnc1-c1ccccc1OC" ?
Completion: inactive

Prompt: Could you check what this test reported for "CCc1nc2c(OCCOc3ccccc3)cccn2c1N(C=O)Cc1ccc(OC)cc1" ?
Completion: inactive

New cases:
Prompt: Could you check what this test reported for "Cc1occc1-c1nnc(SCC(=O)NC2CCCCC2)o1" ?
Completion: inactive

###

Recorded inhibition by entry
# tgt: Histone-lysine N-methyltransferase NSD2 (Homo sapiens)
# measurementProtocol: NSD2 histone methyltransferase inhibitors, primary screen, biochemical, AlphaScreen, single concentration, set 2 (AID 743445)
# conditionNotes: NSD2 peptide methylation, 120 min, at 12.5 µM, stronger effect = higher value
Hit rate of the full screen: of about 310,000 compounds, about 1,700 (0.55%) were called active. Only a selection was taken, and actives are over-represented in it overall.
Give just the number in %; leave the unit off.

Past entries and their recorded results:
Prompt: Suppose we examine the compound "O=C(NCc1ccco1)c1nc2ncccn2n1" ; what inhibition value has been reported?
Completion: -4.87

Prompt: Suppose we examine the compound "O=C(CNC(=O)c1ccccc1)Oc1ccc([N+](=O)[O-])cc1" ; what inhibition value has been reported?
Completion: 53.4

Prompt: Suppose we examine the compound "O=C(CNS(=O)(=O)c1ccccc1F)N1CCN(c2ccccn2)CC1" ; what inhibition value has been reported?
Completion: -3.13

Prompt: Suppose we examine the compound "CC1CCN(CCC(=O)Nc2ccccc2)CC1" ; what inhibition value has been reported?
Completion: 51.1

New cases:
Prompt: Suppose we examine the compound Cc1ccc(CC2(C)C(=O)Nc3ccc(OC(F)(F)F)cc32)cc1 (configuration not stated) ; what inhibition value has been reported?
Completion: -1.93

Prompt: Suppose we examine the compound "O=C(C1CCN(S(=O)(=O)c2ccccc2)CC1)N1CCN(C2CCCCC2)CC1" ; what inhibition value has been reported?
Completion: 0.491

Prompt: Suppose we examine the compound "Fc1ccc2nc(COCc3nc4ccc(F)cc4[nH]3)[nH]c2c1" ; what inhibition value has been reported?
Completion: -1.4

Prompt: Suppose we examine the compound "Cc1ccc(/C=N/NC(=O)c2cc3ccccc3cc2O)o1" ; what inhibition value has been reported?
Completion: 50

###

# tgt: Histone-lysine N-methyltransferase NSD2 (Homo sapiens)
# measurementProtocol: NSD2 histone methyltransferase inhibitors, primary screen, biochemical, AlphaScreen, single concentration, set 2 (AID 743445)
# conditionNotes: NSD2 peptide methylation, 120 min, at 12.5 µM, stronger effect = higher value
Screen size: about 310,000 compounds; about 1,700 (0.55%) were called active. The full list was thinned out, with actives kept by preference.
Recorded inhibition by entry
Give just the number in %; leave the unit off.

Prompt: Suppose we examine the molecule "COc1ccc(-n2c(SCC(=O)Nc3ccc4cn[nH]c4c3)nnc2-c2cccnc2)cc1" ; what inhibition value has been reported?
Completion: 10.9

Prompt: Suppose we examine the molecule "COC(CNC(=O)[C@H](Cc1ccccc1)NC1(C(=O)NC2CCCCC2)CCCCC1)OC" ; what inhibition value has been reported?
Completion: -1.53

###

Recorded inhibition by entry
# tgt: Histone-lysine N-methyltransferase NSD2 (Homo sapiens)
# measurementProtocol: NSD2 histone methyltransferase inhibitors, primary screen, biochemical, AlphaScreen, single concentration, set 2 (AID 743445)
# conditionNotes: NSD2 peptide methylation, 120 min, at 12.5 µM, stronger effect = higher value
The campaign covered roughly 310,000 compounds. About 1,700 (0.55%) were called active. Only a selection was taken, and actives are over-represented in it overall.
Give just the number in %; leave the unit off.

Prompt: Observed inhibition on Histone-lysine N-methyltransferase NSD2 (Homo sapiens) for "CCOC(=O)N1CCN(CCC(=O)Nc2ccccc2)CC1" , please.
Completion: -3.41

Prompt: Observed inhibition on Histone-lysine N-methyltransferase NSD2 (Homo sapiens) for "O=C(NC1CCCCC1)c1ccc(-c2ccc(Cl)cc2)o1" , please.
Completion: -1.75

Prompt: Observed inhibition on Histone-lysine N-methyltransferase NSD2 (Homo sapiens) for "COC(=O)CNC(=O)c1ccccc1[N+](=O)[O-]" , please.
Completion: 0.597

Here's the next entry for you.
Prompt: Observed inhibition on Histone-lysine N-methyltransferase NSD2 (Homo sapiens) for OC(c1ccccc1)c1nc(-c2cnc3ccccc3c2)cs1 (centres undefined) , please.
Completion: 2.58

###

# tgt: Histone-lysine N-methyltransferase NSD2 (Homo sapiens)
# measurementProtocol: NSD2 histone methyltransferase inhibitors, primary screen, biochemical, AlphaScreen, single concentration, set 2 (AID 743445)
# conditionNotes: NSD2 peptide methylation, 120 min, at 12.5 µM
Out of some 310,000 compounds screened, about 1,700 (0.55%) were called active. No stated cut-off is given here; in the data, active means inhibition above about 50%; inactive means the rest. This excerpt belongs to a sample that is enriched for actives.
In this exercise, the only acceptable responses are y (active), n (inactive)

Prompt: Could you check what this test reported for "COC(=O)c1nc(NC(=O)c2ccc(C(C)(C)C)cc2)n[nH]1" ?
Completion: n

Prompt: Could you check what this test reported for "CCOC(=O)c1ccccc1OC(=O)Oc1ccccc1C(=O)OCC" ?
Completion: n

###

# tgt: Histone-lysine N-methyltransferase NSD2 (Homo sapiens)
# measurementProtocol: NSD2 histone methyltransferase inhibitors, primary screen, biochemical, AlphaScreen, single concentration, set 2 (AID 743445)
# conditionNotes: NSD2 peptide methylation, 120 min, at 12.5 µM, stronger effect = higher value
Screen size: about 310,000 compounds; about 1,700 (0.55%) were called active. Only a selection was taken, and actives are over-represented in it overall.
Recorded inhibition by entry
Give just the number in %; leave the unit off.

Past entries and their recorded results:
Prompt: Suppose we examine the compound "CC(=O)NC(=S)NNC(=O)c1ccc(Br)cc1" ; what inhibition value has been reported?
Completion: -3.53

Prompt: Suppose we examine the compound "CC(C)Nc1nc(NCCOc2ccccc2Cl)c2sccc2n1" ; what inhibition value has been reported?
Completion: 2.58

Prompt: Suppose we examine the compound "CC(=O)c1cccc(-c2cnc3c(NC=O)cc(-c4ccc(N5CCN(C)CC5)cc4)cn23)c1" ; what inhibition value has been reported?
Completion: 2.68

New cases:
Prompt: Suppose we examine the compound "O=C(NC1=CC(=O)c2ccccc2C1=O)c1ccccc1" ; what inhibition value has been reported?
Completion: 40.2

Prompt: Suppose we examine the compound "Cc1nnc(SCC(=O)NCc2cccs2)[nH]c1=O" ; what inhibition value has been reported?
Completion: -1.95
